- study_system: α4β7 integrin (Homo sapiens (Human), UniProt P13612+P26010)
- Sequence (P13612 34-1032): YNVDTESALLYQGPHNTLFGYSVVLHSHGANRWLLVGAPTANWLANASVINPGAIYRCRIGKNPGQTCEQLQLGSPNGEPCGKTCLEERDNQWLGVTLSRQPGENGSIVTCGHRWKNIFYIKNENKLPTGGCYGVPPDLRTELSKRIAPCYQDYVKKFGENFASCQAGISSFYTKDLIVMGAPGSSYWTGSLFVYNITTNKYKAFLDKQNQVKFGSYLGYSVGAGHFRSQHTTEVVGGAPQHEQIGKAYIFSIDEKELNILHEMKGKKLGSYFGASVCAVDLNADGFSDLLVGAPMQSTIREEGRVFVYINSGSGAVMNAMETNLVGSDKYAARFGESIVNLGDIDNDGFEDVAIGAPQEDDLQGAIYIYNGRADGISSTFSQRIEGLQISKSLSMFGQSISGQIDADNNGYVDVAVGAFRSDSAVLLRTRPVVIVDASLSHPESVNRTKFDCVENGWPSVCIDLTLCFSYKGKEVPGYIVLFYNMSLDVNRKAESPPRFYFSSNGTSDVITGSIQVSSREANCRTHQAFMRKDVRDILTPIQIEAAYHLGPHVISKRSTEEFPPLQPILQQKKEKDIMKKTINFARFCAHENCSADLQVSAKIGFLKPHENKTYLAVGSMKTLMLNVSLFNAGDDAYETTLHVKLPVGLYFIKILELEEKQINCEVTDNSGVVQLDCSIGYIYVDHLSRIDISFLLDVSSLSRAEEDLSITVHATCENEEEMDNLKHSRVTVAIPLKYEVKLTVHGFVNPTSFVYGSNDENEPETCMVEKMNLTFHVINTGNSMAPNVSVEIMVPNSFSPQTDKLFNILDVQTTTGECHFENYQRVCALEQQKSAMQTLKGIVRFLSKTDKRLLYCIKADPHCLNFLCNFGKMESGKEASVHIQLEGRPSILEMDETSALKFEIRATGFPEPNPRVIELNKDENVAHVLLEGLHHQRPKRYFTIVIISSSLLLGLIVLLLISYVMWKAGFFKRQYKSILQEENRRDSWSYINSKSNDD
- Sequence (P26010 20-798): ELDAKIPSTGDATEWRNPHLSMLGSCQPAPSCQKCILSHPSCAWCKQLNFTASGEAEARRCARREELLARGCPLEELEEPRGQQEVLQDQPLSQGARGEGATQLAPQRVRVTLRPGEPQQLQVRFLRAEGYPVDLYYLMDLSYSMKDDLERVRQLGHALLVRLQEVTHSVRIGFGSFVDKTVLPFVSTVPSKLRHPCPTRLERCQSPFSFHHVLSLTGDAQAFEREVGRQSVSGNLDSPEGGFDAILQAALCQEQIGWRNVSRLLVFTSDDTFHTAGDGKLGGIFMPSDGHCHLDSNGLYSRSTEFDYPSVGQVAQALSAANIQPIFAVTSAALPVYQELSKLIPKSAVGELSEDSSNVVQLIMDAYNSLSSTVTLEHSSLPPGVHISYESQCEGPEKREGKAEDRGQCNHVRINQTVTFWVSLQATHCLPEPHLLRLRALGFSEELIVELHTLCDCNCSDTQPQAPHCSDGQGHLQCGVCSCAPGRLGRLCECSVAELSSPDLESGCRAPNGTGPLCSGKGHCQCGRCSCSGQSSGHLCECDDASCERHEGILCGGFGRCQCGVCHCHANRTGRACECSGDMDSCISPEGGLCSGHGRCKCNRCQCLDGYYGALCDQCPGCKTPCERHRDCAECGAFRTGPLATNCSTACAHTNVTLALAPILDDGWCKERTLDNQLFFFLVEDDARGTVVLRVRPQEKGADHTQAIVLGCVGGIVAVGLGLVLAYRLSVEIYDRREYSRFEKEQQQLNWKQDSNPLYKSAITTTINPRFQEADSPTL
- experiment_description: MAdCAM-1/α4β7 integrin binding inhibitory activity evaluation test (RPMI-8866 cell adhesion to MAdCAM-1/Fc)
- Type: cell-based
- recorded_conditions: RPMI-8866 cells binding to recombinant mouse MAdCAM-1/Fc, no serum
parameter: IC50 (nM)

Known results for compounds:
compound	parameter	unit_abbrev	experimental_result
Cn1ccc(=O)n(-c2ccc(C[C@H](NC(=O)c3c(F)cc(NS(=O)(=O)c4ccc(-n5cccc5)cc4)cc3F)C(=O)O)cc2)c1=O [Example 64]	IC50	nM	2
Cn1c(=O)n(-c2ccc(C[C@H](NC(=O)c3c(F)cc(NS(=O)(=O)c4ccc(-c5ccoc5)cc4)cc3F)C(=O)O)cc2)c(=O)c2ccncc21 [Example 66]	IC50	nM	1.6
Cn1ccc(=O)n(-c2ccc(C[C@H](NC(=O)c3c(F)cc(NS(=O)(=O)c4ccc(-c5ncccn5)cn4)cc3F)C(=O)O)cc2)c1=O [Example 40]	IC50	nM	0.73

I = Cc1cc(-c2ccc(S(=O)(=O)Nc3cc(F)c(C(=O)N[C@@H](Cc4ccc(-n5c(=O)c6ccncc6n(C)c5=O)cc4)C(=O)O)c(F)c3)cc2)ccn1 [Example 49]
II = COc1cc2c(=O)n(-c3ccc(C[C@H](NC(=O)c4c(F)cc(NS(=O)(=O)c5ccc(-c6ncccn6)cc5)cc4F)C(=O)O)cc3)c(=O)n(C)c2cn1 [Example 46]
III = Cn1c(=O)n(-c2ccc(C[C@H](NC(=O)c3c(F)cc(NS(=O)(=O)c4ccc(-n5cncn5)nc4)cc3F)C(=O)O)cc2)c(=O)c2ccncc21 [Example 55]
Query string: Which order do these items take when sorted by rising IC50? List them. Provide the labels, sequenced as the question asks.
Result string: III, I, II

1 = Cn1c(=O)n(-c2ccc(C[C@H](NC(=O)c3c(F)cc(NS(=O)(=O)c4ccc(-c5ncccn5)cc4)cc3F)C(=O)O)cc2)c(=O)c2ccncc21 [Example 41]
2 = Cn1ccc(=O)n(-c2ccc(C[C@H](NC(=O)c3c(F)cc(NS(=O)(=O)c4ccc(-n5nccn5)cn4)cc3F)C(=O)O)cc2)c1=O [Example 72]
3 = CNCc1ccc(S(=O)(=O)Nc2ccc(C(=O)N[C@@H](Cc3ccc(-n4c(=O)c5ccncc5n(C)c4=O)cc3)C(=O)O)c(F)c2)cc1 [Example 52]
4 = Cc1cc(-c2ccc(S(=O)(=O)Nc3cc(F)c(C(=O)N[C@@H](Cc4ccc(-n5c(=O)c6ccncc6n(C)c5=O)cc4)C(=O)O)c(F)c3)cc2)cc(C)n1 [Example 70]
5 = Cn1c(=O)n(-c2ccc(C[C@H](NC(=O)c3c(F)cc(NS(=O)(=O)c4ccc(-c5ccnc(F)c5)cc4)cc3F)C(=O)O)cc2)c(=O)c2ccncc21 [Example 68]
Query string: Which order do these items take when sorted by rising IC50? List them. Provide the labels, sequenced as the question asks.
Result string: 5, 1, 4, 2, 3
(5: 0.13 nM, 1: 0.26 nM, 4: 0.41 nM, 2: 1.6 nM, 3: 2.6 nM)

a = Cc1ccc(-c2ccc(S(=O)(=O)Nc3cc(F)c(C(=O)N[C@@H](Cc4ccc(-n5c(=O)c6ccncc6n(C)c5=O)cc4)C(=O)O)c(F)c3)cc2)cn1 [Example 50]
b = Cn1c(=O)n(-c2ccc(C[C@H](NC(=O)c3c(F)cc(NS(=O)(=O)c4ccc(C5=CCNCC5)cc4)cc3F)C(=O)O)cc2)c(=O)c2ccncc21 [Example 69]
c = Cc1cnccc1-c1ccc(S(=O)(=O)Nc2cc(F)c(C(=O)N[C@@H](Cc3ccc(-n4c(=O)c5ccncc5n(C)c4=O)cc3)C(=O)O)c(F)c2)cc1 [Example 65]
Query string: Arrange by IC50, high to low. Provide the labels, sequenced as the question asks.
Result string: c, a, b

I = Cn1c(=O)n(-c2ccc(C[C@H](NC(=O)c3ccc(NS(=O)(=O)c4ccncc4)cc3F)C(=O)O)cc2)c(=O)c2ccncc21 [Example 39]
II = Cn1c(=O)n(-c2ccc(C[C@H](NC(=O)c3c(F)cc(NS(=O)(=O)c4ccc(-n5cncn5)cn4)cc3F)C(=O)O)cc2)c(=O)c2ccncc21 [Example 57]
III = COc1ccc2c(c1)c(=O)n(-c1ccc(C[C@H](NC(=O)c3c(F)cc(NS(=O)(=O)c4ccc(-n5ccnn5)cc4)cc3F)C(=O)O)cc1)c(=O)n2C [Example 51]
IV = Cn1c(=O)n(-c2ccc(C[C@H](NC(=O)c3c(F)cc(NS(=O)(=O)c4ccc(-n5ccnn5)cn4)cc3F)C(=O)O)cc2)c(=O)c2ccncc21 [Example 71]
V = Cn1c(=O)n(-c2ccc(C[C@H](NC(=O)c3c(F)cc(NS(=O)(=O)c4ccc(-c5ncc[nH]5)cc4)cc3F)C(=O)O)cc2)c(=O)c2ccncc21 [Example 48]
Query string: Which order do these items take when sorted by rising IC50? List them. Provide the labels, sequenced as the question asks.
Result string: II, IV, V, I, III

A = Cn1ccc(=O)n(-c2ccc(C[C@H](NC(=O)c3c(F)cc(NS(=O)(=O)c4ccc(C(=O)NC5CC5)cc4)cc3F)C(=O)O)cc2)c1=O [Example 45]
B = CCNC(=O)c1ccc(S(=O)(=O)Nc2cc(F)c(C(=O)N[C@@H](Cc3ccc(-n4c(=O)ccn(C)c4=O)cc3)C(=O)O)c(F)c2)cc1 [Example 44]
Query string: Compare the recorded IC50 of A and B ; state which is larger. // respond with label for picked entry
Result string: A
(A: 0.97 nM, B: 0.62 nM)

----------
- study_system: α4β7 integrin (Homo sapiens (Human), UniProt P13612+P26010)
- experiment_description: MAdCAM-1/α4β7 integrin binding inhibitory activity evaluation test (RPMI-8866 cell adhesion to MAdCAM-1/Fc)
- Assay type: cell-based
- recorded_conditions: RPMI-8866 cells binding to recombinant mouse MAdCAM-1/Fc, no serum
parameter: IC50 (nM)

Cn1c(=O)n(-c2ccc(C[C@H](NC(=O)c3c(F)cc(NS(=O)(=O)c4ccc(-c5ccncc5)nc4)cc3F)C(=O)O)cc2)c(=O)c2ccncc21 0.27

P = CN(C)c1ccc2c(c1)c(=O)n(-c1ccc(C[C@H](NC(=O)c3c(F)cc(NS(=O)(=O)c4ccc(-n5cncn5)cc4)cc3F)C(=O)O)cc1)c(=O)n2C
Q = Cn1c(=O)n(-c2ccc(C[C@H](NC(=O)c3c(F)cc(NS(=O)(=O)c4ccc(-c5cncnc5)cn4)cc3F)C(=O)O)cc2)c(=O)c2ccncc21
Query string: Returns the identifier with the smallest measured IC50 among P and Q . // respond with label for picked entry
Result string: Q

----------
- study_system: α4β7 integrin (Homo sapiens (Human), UniProt P13612+P26010)
- experiment_description: MAdCAM-1/α4β7 integrin binding inhibitory activity evaluation test in the presence of serum (1)
- Assay type: cell-based
- recorded_conditions: RPMI-8866 cells binding to mouse MAdCAM-1/Fc, human serum at final concentration of 50%; read-out: α4β7 with serum added, IC50
- Method: The ability of test substances to inhibit the binding of a human B cell line, RPMI-8866, which is known to express α4β7 integrin, to MAdCAM-1 was measured. […] To each well, 30 μL of Stop Solution (Promega, CytoTox 96 Non-Radioactive Cytotoxicity Assay) was added, and the absorbance at 490 nm was measured by using a plate reader. Here, by the obtained absorbance, the activity of the lactate dehydrogenase (LDH) dissolved into the supernatant of each well was detected. […]
parameter: IC50 (nM)

Cn1c(=O)n(-c2ccc(C[C@H](NC(=O)c3c(F)cc(NS(=O)(=O)c4ccc(-c5ccnc(F)c5)cc4)cc3F)C(=O)O)cc2)c(=O)c2ccncc21 9.8

P = CN(C)c1ccc2c(c1)c(=O)n(-c1ccc(C[C@H](NC(=O)c3c(F)cc(NS(=O)(=O)c4ccc(-n5cncn5)cc4)cc3F)C(=O)O)cc1)c(=O)n2C
Q = Cn1c(=O)n(-c2ccc(C[C@H](NC(=O)c3c(F)cc(NS(=O)(=O)c4ccc(-c5ncccn5)cc4)cc3F)C(=O)O)cc2)c(=O)c2ccncc21
Query string: Compare the recorded IC50 of P and Q ; state which is larger. // respond with label for picked entry
Result string: P
(P: 20 nM, Q: 6.4 nM)

----------
- study_system: α4β7 integrin (Homo sapiens (Human), UniProt P13612+P26010)
- experiment_description: MAdCAM-1/α4β7 integrin binding inhibitory activity evaluation test in the presence of serum (2)
- Type: cell-based
- recorded_conditions: RPMI-8866 cells binding to mouse MAdCAM-1/Fc, same manner as Test (3), read-out: α4β7 Rank of activity with serum added
pIC50: −log10 of the molar value.
Below, each of the molecules is paired with its reported pIC50 value.

Cn1ccc(=O)n(-c2ccc(C[C@H](NC(=O)c3c(F)cc(NS(=O)(=O)c4ccc(C(=O)NC(C)(C)C)nc4)cc3F)C(=O)O)cc2)c1=O ≥ 8.00

Query string: α4β7 integrin (Homo sapiens (Human), UniProt P13612+P26010) / pIC50 / `CCNC(=O)c1ccc(S(=O)(=O)Nc2cc(F)c(C(=O)N[C@@H](Cc3ccc(-n4c(=O)c5c(ncn5C)n(C)c4=O)cc3)C(=O)O)c(F)c2)cc1` : value?
Result string: ≥ 8.00

Query string: α4β7 integrin (Homo sapiens (Human), UniProt P13612+P26010) / pIC50 / `Cn1c(=O)n(-c2ccc(C[C@H](NC(=O)c3ncc(NS(=O)(=O)c4ccc(-c5ncccn5)cn4)cc3F)C(=O)O)cc2)c(=O)c2ccncc21` : value?
Result string: 7.30 to 8.00
